# Tested on: CCRIS mutagenicity, Ames/micronucleus/aberration tests
# measurement.protocol: CCRIS mutagenicity studies
# test.context: Test System: Ames Salmonella typhimurium; Strain/Indicator: TA1535; Metabolic Activation: None; Method: Preincubation
The source made the active and inactive calls. How the calls were made is not given here.
Outcomes: y = active, n = inactive

> print(dat)
                                    compound  discrete.label
 1                         O=C(O)CCSCCC(=O)O               n
 2              OCC1CO1 (stereo unspecified)               y
 3  CN(C)c1ccc(C(=C2C=CC(=[N+](C)C)C=C2)c2ccccc2Cl)cc1               n
 4                                     C#CCO               n
 5                   C(=NC1CCCCC1)=NC1CCCCC1               n
 6                              OCCOc1ccccc1               n
 7            CCCCNC(=O)c1cc(N)ccc1OC1CCCCC1               n
 8                                 C1=CCCCC1               n
 9                              Cc1cccc(O)c1               n
10             O=C(Cl)c1ccc([N+](=O)[O-])cc1               y
11  C[C@]12CCC(=O)C=C1CC[C@@H]1[C@@H]2CC[C@]2(C)C(=O)CC[C@@H]12               n
